Attribution: paper PMC7979765

Test: Serum protein binding, human
Type: in vitro ADME
Details: Average Value, Eurofins, read-out: Serum binding (% bound) Human (converted)
parameter: fraction unbound

>>> numeric_result("O=C(Nc1nnc(-c2ccc(F)cc2)o1)N1CCc2ccccc2C1")
0.009

---

Experiment: Pharmacokinetic analyses in mice (PO suspension, IV, SC)
Type: in vivo, mouse
Settings: mouse, in vivo, po, 10 mg/kg, PO (10 mg/kg), 4 hrs, individual animals; read-out: MBX 4132 Concentrations in Mouse Plasma
parameter: concentration at 4 h (ng/mL)

>>> numeric_result("O=C(Nc1nnc(-c2ccc(F)cc2)o1)N1CCc2ccccc2C1")
1680

---

Test: Serum protein binding, murine
Format: in vitro ADME, mouse
Settings: mouse, serum, murine serum; read-out: murine serum binding (% bound)
parameter: fraction unbound

>>> result("O=C(Nc1nnc(-c2ccc(F)cc2)o1)c1ccc(Cl)cc1")
"< 0.01"

---

Experiment: Pharmacokinetic analyses in mice (PO suspension, IV, SC)
Format: in vivo, mouse
Details: mouse, in vivo, po, 10 mg/kg, PO (10 mg/kg), 24 hrs, mean of 3 animals; read-out: MBX 4132 Concentrations in Mouse Plasma, Mean
parameter: concentration at 24 h (ng/mL)

>>> numeric_result("O=C(Nc1nnc(-c2ccc(F)cc2)o1)N1CCc2ccccc2C1 [MBX 4132]")
58

---

Molecular target: CYP3A (Homo sapiens)
Sequence (P08684 2-503): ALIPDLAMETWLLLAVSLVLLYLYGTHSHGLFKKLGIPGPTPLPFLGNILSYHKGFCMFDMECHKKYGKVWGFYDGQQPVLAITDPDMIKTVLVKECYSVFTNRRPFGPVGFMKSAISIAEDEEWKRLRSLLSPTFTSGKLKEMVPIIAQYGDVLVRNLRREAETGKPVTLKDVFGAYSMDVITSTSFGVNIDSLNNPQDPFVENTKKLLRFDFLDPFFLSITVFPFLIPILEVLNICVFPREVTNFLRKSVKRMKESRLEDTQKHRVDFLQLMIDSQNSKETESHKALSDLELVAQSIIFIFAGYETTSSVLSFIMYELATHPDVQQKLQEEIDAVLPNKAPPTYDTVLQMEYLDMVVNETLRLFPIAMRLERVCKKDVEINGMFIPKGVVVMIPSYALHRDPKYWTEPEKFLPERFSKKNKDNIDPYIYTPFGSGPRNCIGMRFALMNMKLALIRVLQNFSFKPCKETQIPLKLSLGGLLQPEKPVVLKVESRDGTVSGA
Test: Cyp inhibition assays 4873, 4872
Type: in vitro ADME
Conditions: human, probe testosterone
pIC50: −log10 of the molar value.
parameter: pIC50

>>> result("O=C(Nc1nnc(-c2ccc(F)cc2)o1)N1CCc2ccccc2C1")
"< 4.00"

---

Test: in vitro
Settings: mouse, serum, Murine serum stability (% remaining after 1 hr)
parameter: remaining at 1 h (%)

>>> numeric_result("O=C(Nc1nnc(-c2ccc(F)cc2)o1)N1CCc2ccccc2C1 [MBX-4132]")
109

---

Assay: Pharmacokinetic analyses in mice (PO suspension, IV, SC)
Type: in vivo, mouse
Settings: mouse, in vivo, iv, 10 mg/kg, IV (10 mg/kg), 8 hrs, mean of 3 animals; read-out: MBX 4132 Concentrations in Mouse Plasma, Mean
parameter: concentration at 8 h (ng/mL)

>>> numeric_result("O=C(Nc1nnc(-c2ccc(F)cc2)o1)N1CCc2ccccc2C1")
3730

---

Test: Multiplexed cytotoxicity assay (nuclei, ROS, TMRE)
Assay type: cell-based, human
Conditions: human, human primary hepatocytes, 1.00E-01 μM; read-out: Mean MMP inhibition (fold induction)
parameter: fold induction at 24 h, 0.1 μM

>>> numeric_result("O=C(Nc1nnc(-c2ccc(F)cc2)o1)N1CCc2ccccc2C1")
1.2

---

Assay: Liver microsome stability, rat
Format: in vitro ADME
Details: rat, liver microsomes; read-out: Microsomal Stability (t1/2; min) Rat
Experimental: To examine potential for first-pass metabolism of analogs in the liver, the stability of analogs in the presence of liver microsome preparations (Eurofins Discovery for human, dog and rat; Xenotech for mouse) was measured using the method of Kuhnz, et al.[50]. for murine studies and Oback for the dog, human and rat studies. […] Half-lives were calculated using linear regression analysis of several time points.
parameter: half-life

>>> result("O=C(Nc1nnc(-c2ccc(F)cc2)o1)N1CCc2ccccc2C1 [MBX-4132]")
"> 2 h"

---

Test: Pharmacokinetic analyses in mice (PO suspension, IV, SC)
Type: in vivo, mouse
Conditions: female, CD-1, mouse, in vivo, sc, 10 mg/kg, SC (10 mg/kg), 1 hrs, mean of 3 animals; read-out: MBX 4132 Concentrations in Mouse Plasma, Mean
parameter: concentration at 1 h (ng/mL)

>>> numeric_result("O=C(Nc1nnc(-c2ccc(F)cc2)o1)N1CCc2ccccc2C1")
3350
